System: A549
assay_text: In vitro cytotoxicity of toxin compounds, CellTiter-Glo, three days (Example 12)
Type: cell-based
setup_conditions: Homo sapiens, 72 h
Give measured pIC50 for each item. Keep answers brief.
Value format note: pIC50 is -log10 of concentration (mol/L); just state the number.

Req: Given COC(=O)C[C@@H]1C[C@@]2(CO2)[C@H](O)[C@@H](/C=C/C(C)=C/C[C@@H]2O[C@H](C)[C@H](NC(=O)/C=C\C(C)c3ccon3)C[C@@H]2C)O1 (stereo partly drawn) [Compound 4] , state its recorded pIC50.
Resp: 8.55

Req: Now the compound COC(=O)C[C@@H]1C[C@@]2(CO2)[C@H](O)[C@@H](/C=C/C(C)=C/C[C@@H]2O[C@H](C)[C@H](NC(=O)/C=C\C(C)c3noc(C)n3)C[C@@H]2C)O1 (stereo partly drawn) [Compound 6]
Resp: 8.32

Req: Also COC(=O)C[C@@H]1C[C@@]2(CO2)[C@H](O)[C@@H](/C=C/C(C)=C/C[C@@H]2O[C@H](C)[C@H](NC(=O)/C=C\C(C)OC(=O)c3ccc(F)cc3)C[C@@H]2C)O1 (stereo partly drawn) [Compound 2] , if possible.
Resp: 7.42
